# STUDY SYSTEM: estrogen receptor (ERα) in CAMA-1 cells (Homo sapiens (Human), UniProt P03372)
# Sequence (P03372 whole entry): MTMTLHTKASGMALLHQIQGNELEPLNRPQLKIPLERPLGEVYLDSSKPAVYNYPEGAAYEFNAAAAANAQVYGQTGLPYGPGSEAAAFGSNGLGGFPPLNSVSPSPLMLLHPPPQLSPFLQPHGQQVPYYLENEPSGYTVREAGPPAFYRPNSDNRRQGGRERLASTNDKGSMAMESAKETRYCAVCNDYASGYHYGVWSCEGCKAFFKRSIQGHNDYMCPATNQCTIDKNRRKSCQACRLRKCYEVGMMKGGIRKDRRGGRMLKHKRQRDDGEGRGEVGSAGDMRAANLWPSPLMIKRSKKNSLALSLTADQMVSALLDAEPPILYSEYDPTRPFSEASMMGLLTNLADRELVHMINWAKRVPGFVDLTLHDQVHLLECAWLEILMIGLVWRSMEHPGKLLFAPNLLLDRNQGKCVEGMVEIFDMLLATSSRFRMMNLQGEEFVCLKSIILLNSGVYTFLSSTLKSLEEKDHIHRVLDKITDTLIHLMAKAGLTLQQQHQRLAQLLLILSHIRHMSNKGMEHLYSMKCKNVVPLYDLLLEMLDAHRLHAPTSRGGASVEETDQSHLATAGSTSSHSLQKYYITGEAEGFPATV
# TEST SUMMARY: Western blotting assay, CAMA-1 cells
# Type: cell-based
# TEST CONDITIONS: compound 100 nM, 48 h, normalised to 100 nM fulvestrant (100%)
Items are presented alongside their recorded CAMA1 Western % ER deg vs Fv.

| COMPOUND | STUDY SYSTEM | CAMA1 Western % ER deg vs Fv (%) |
| --- | --- | --- |
| C[C@@H]1Cc2c([nH]c3ccccc23)[C@@H](c2ccc(OCCNCCCF)cc2)N1CC(F)F [Example 56] | estrogen receptor (ERα) in CAMA-1 cells (Homo sapiens (Human), UniProt P03372) | 66 |
| C[C@@H]1Cc2c([nH]c3ccccc23)[C@@H](c2ccc(OCCNCCCF)cc2F)N1CC(F)F [Example 48] | estrogen receptor (ERα) in CAMA-1 cells (Homo sapiens (Human), UniProt P03372) | 65 |
| C[C@@H]1Cc2c([nH]c3ccccc23)[C@@H](c2c(F)cc(NCCNCCCF)cc2F)N1CC(F)(F)CO [Example 46] | estrogen receptor (ERα) in CAMA-1 cells (Homo sapiens (Human), UniProt P03372) | 74 |
| C[C@@H]1Cc2c([nH]c3ccccc23)[C@@H](c2c(F)cc(NCCNCCCF)cc2F)N1CC1(F)CC1 [Example 9] | estrogen receptor (ERα) in CAMA-1 cells (Homo sapiens (Human), UniProt P03372) | 80 |
| COc1cc(OCCNCCCF)ncc1[C@@H]1c2[nH]c3ccccc3c2C[C@@H](C)N1CC(F)F [Example 40] | estrogen receptor (ERα) in CAMA-1 cells (Homo sapiens (Human), UniProt P03372) | 85 |
| C[C@@H]1Cc2c([nH]c3ccccc23)[C@@H](c2c(F)cc(N(C)CCNCCCF)cc2F)N1CC1(F)CC1 [Example 45] | estrogen receptor (ERα) in CAMA-1 cells (Homo sapiens (Human), UniProt P03372) | 72 |
| COc1cc(OCCNCCCF)ncc1[C@@H]1c2[nH]c3ccccc3c2C[C@@H](C)N1CC(F)(F)F [Example 41] | estrogen receptor (ERα) in CAMA-1 cells (Homo sapiens (Human), UniProt P03372) | 89 |
